- measurement target: T1, TweakR on cells (TweakR-expressing cells, TweakR transfectant cell line, A375 melanoma cells, tumor tissue) (human, UniProt Q9NP84 28-129)
- T1 sequence: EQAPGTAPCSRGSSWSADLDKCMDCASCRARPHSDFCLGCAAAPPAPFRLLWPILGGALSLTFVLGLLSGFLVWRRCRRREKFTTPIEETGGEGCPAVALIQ
- assay details: cell-based or functional assay
agonist activity (IL-8 release assay): recorded values

binder	agonist activity (IL-8 release assay)
humanized anti-TweakR antibody PDL400 (antibody, V domains shown, constant regions not expressly stated) VH: QVQLVQSGAEVKKPGASVKISCKVSGYTFTDFIIAWVKQAPGKGLEWIGEIYPGTGRTYYSEKFRGKATLTADKSTSTAYMELSSLRSEDTAVYYCARRTIYYDYDGDYWGQGTTVTVSS VL: DIVMTQSPLSLPVTPGEPASISCRSSKSLLHSNGITYLYWYLQKPGQSPQLLIYQMSNLASGVPDRFSSSGSGTDFTLKISRVEAEDVGVYYCAHNLELPWTFGGGTKVEIK	~8%
murine anti-TweakR antibody 18.3.3 (antibody, V domains shown, Mouse monoclonal antibody) VH: EVKLGESGGGLVQPGGSMKLSCVASGFPFTKYWMNWVRQSPEKGLEWVAEIRLKSDNYATHYAESAKGRFTISRDDSRSSVYLQMNNLRAEDTAIYYCSPTYADTMDYWGQGTSVTVSS VL: DIVLTQSPASLAVSLGQRATISCKASQSVSTSTYSYMQWYQQRPGQSPKLLIKYASKLDSGVPARFSGSGSGTDFTLNIHPVEEEDTATYYCQHSWELPYTFGGGTRLEIKR	~14%
murine anti-TweakR antibody 136.1 (antibody, V domains shown, Mouse monoclonal antibody) VH: EVKLEESGGGLVQPGGSMKLSCVASGFTFNNYWMSWVRQSPEKGLEWLAEIRLKSDNYATHYAESVKGKFTISRDDSKSRLYLQMNNLRAENTGIYYCTGGFADYFDYWGQGTTLTVSS VL: DIVLTQSPASLTVSLGQRATISCRASQSVSTSSYSYMQWYQQRPGQPPKLLIKYATNLDSGVPARFSGSGSGTDFTLNIHPVEEEDAATYYCQHSWEIPYTFGGGTKLEIKR	~278%
murine anti-TweakR antibody ITEM-3 (antibody, V domains shown) VH: EVKLEESGGGLVQPGGSMKLSCVVSGLTFSRYWMSWVRQSPEKGLEWVAEIRVKSDNYATTHYAESVKGKFTVSRDDSKSRLYLQMSSLRPEDTGIYYCIGYYADAMDYWGQGTSVTVSS VL: DIVLTQSPASLVVSLGQRATISCRASQSVSTSSYSYMHWYQQKPGQPPKLLIKYASKLDSGVPARFSGSGSGTDFTLNIHPVEEEDTATYYCQHSWEIPWTFGGGTKMEIKR	~37%
